Data provenance is the supplement of paper PMC9262897.

system: E. coli TESEC Mtb DapB; assay: growth (OD600 after 10 h); higher = more growth (less inhibition); conditions: arabinose induction (level): Low; compound 0.1 mM; raw OD600 reference: median of DMSO wells 0.227, cell-free background 0.041
Counter-ions that a name gives are not always drawn.
Response key: y means growth >= 0.2; n means growth < 0.2.

CN(C)CCCO[C@@H]1[C@H]2OC(C)(C)O[C@H]2O[C@@H]1[C@H](O)CO [Amiprilose hydrochloride]; y

Reported growth at or above 0.2? Nc1ccc(S(=O)(=O)Nc2ccnn2-c2ccccc2)cc1 [Sulfaphenazole] n

Could you please find out whether CO/N=C(\C(=O)N[C@@H]1C(=O)N2C(C(=O)O)=C(COC(C)=O)CS[C@H]12)c1csc(N)n1 [Cefotaxime sodium salt] has growth that meets 0.2 or exceeds it? n

Does the molecule NCc1ccccc1CC(=O)N[C@@H]1C(=O)N2C(C(=O)O)=C(CSc3nnnn3CC(=O)O)CS[C@H]12 [Ceforanide] have recorded growth that is 0.2 or more? y

Determine whether this molecule has growth no lower than 0.2: OC(c1cc(C(F)(F)F)nc2c(C(F)(F)F)cccc12)C1CCCCN1 (stereo not drawn) [Mefloquine hydrochloride] n

Hi team, for O=C(O)Cc1sc(-c2ccccc2)nc1-c1ccc(Cl)cc1 [Fentiazac] , is the recorded growth at or above 0.2? y

Is growth for Nc1cc(-c2ccncc2)c[nH]c1=O [Amrinone] at or above 0.2? y

State whether the measured growth reaches 0.2, counting equality as reaching it, for c1coc(CNc2ncnc3nc[nH]c23)c1 [6-Furfurylaminopurine] y

====

system: E. coli TESEC Mtb Alr; experiment: growth (OD600 after 10 h); higher = more growth (less inhibition); conditions: arabinose 100000 nM; compound 0.1 mM; raw OD600 reference: median of DMSO wells 0.201, cell-free background 0.041
Counter-ions that a name gives are not always drawn.
measured.attribute: growth
Lab note: jot the number down without any unit.

Request body: readout growth, system E. coli TESEC Mtb Alr, query O=C(O[C@@H]1C[C@@H]2C[C@H]3C[C@H](C1)N2CC3=O)c1c[nH]c2ccccc12 [Dolasetron mesilate] . Return the value. 0.137

Please state recorded growth (tested on E. coli TESEC Mtb Alr) of CC(O)(P(=O)(O)O)P(=O)(O)O [Etidronic acid, disodium salt] 0.209

# returns recorded growth (system: E. coli TESEC Mtb Alr) for `CNc1ncnc2c1ncn2[C@@H]1O[C@H](CO)[C@@H](O)[C@H]1O` 0.261

// lookup growth | system=E. coli TESEC Mtb Alr | key= CC(C)(Oc1ccc(CCNC(=O)c2ccc(Cl)cc2)cc1)C(=O)O [Bezafibrate] 0.208

Entry `Cc1cn([C@H]2C[C@H](N=[N+]=[N-])[C@@H](CO)O2)c(=O)[nH]c1=O` , system E. coli TESEC Mtb Alr: what growth was measured? 0.0839

Find growth (E. coli TESEC Mtb Alr) for the entry CC(CCc1ccccc1)NCC(O)c1ccc(O)c(C(N)=O)c1 (configuration not stated) [Labetalol hydrochloride] 0.174

# value lookup — system E. coli TESEC Mtb Alr, readout growth, item `CCn1cc(C(=O)O)c(=O)c2cnc(N3CCNCC3)nc21` 0.117

Param readout= growth; system= E. coli TESEC Mtb Alr; entry= C[N+]1(CCCCC[N+]2(C)CCCC2)CCCC1 [Pentolinium bitartrate] ; returns value. 0.202

Form: Entry = CCCN[C@H]1CCc2nc(N)sc2C1 [Pramipexole dihydrochloride] | System = E. coli TESEC Mtb Alr | growth = ____ 0.207

What value of growth on E. coli TESEC Mtb Alr does CC(C)(C)NC[C@H](O)c1ccc(O)c(CO)c1 [Levalbuterol hydrochloride] have? 0.197

Fill in the recorded growth for this compound, with E. coli TESEC Mtb Alr as test system: CN(C)CCOC(c1ccccc1)c1ccccc1.Cn1c(=O)c2[nH]c(Cl)nc2n(C)c1=O [Dimenhydrinate] 0.174

# get_value(readout= growth, system= E. coli TESEC Mtb Alr) for `C[C@H]1O[C@@H](O[C@H]2[C@@H](O)C[C@H](O[C@H]3[C@@H](O)C[C@H](O[C@H]4CC[C@@]5(C)[C@H](CC[C@@H]6[C@@H]5C[C@@H](O)[C@]5(C)[C@@H](C7=CC(=O)OC7)CC[C@]65O)C4)O[C@@H]3C)O[C@@H]2C)C[C@H](O)[C@@H]1O` 0.2

====

system: E. coli TESEC Mtb Alr; assay: growth (OD600 after 10 h); higher = more growth (less inhibition); details: arabinose 100000 nM; compound 0.1 mM; raw OD600 reference: median of DMSO wells 0.201, cell-free background 0.041
Counter-ions that a name gives are not always drawn.
measured.attribute: growth

Here's what some known entries look like.
O=C1c2c(O)cccc2Cc2cccc(O)c21; 0.205
Cc1nccn1CC1CCc2c(c3ccccc3n2C)C1=O (stereo not given) [Ondansetron Hydrochloride]; 0.246
C[C@H](Cc1cc2c(c(C(N)=O)c1)N(CCCO)CC2)NCCOc1ccccc1OCC(F)(F)F; 0.171

Fill in: growth of Nc1nc(=O)n([C@@H]2CS[C@H](CO)O2)cc1F [(-)-Emtricitabine] is ___ 0.254

Look at this molecule and give its reported growth. `C[C@H](CS)C(=O)N1CCC[C@H]1C(=O)O` 0.198

====

Each entry below lists one item and its recorded growth value.
test system: E. coli TESEC Mtb DapB; assay: growth (OD600 after 10 h); higher = more growth (less inhibition); settings: arabinose induction (level): Low; compound 0.1 mM; raw OD600 reference: median of DMSO wells 0.227, cell-free background 0.041
Where a name gives a salt, the structure may show the parent alone.
// no unit string in output, number only

CN(C(=O)C(Cl)Cl)c1ccc(OC(=O)c2ccco2)cc1 [Diloxanide furoate]; 0.21
CC(=O)Nc1c(I)c(NC(C)=O)c(I)c(C(=O)O)c1I [Diatrizoic acid dihydrate]; 0.235
CCCCCCC[N+](CC)(CC)CCCCc1ccc(Cl)cc1 [Clofilium tosylate]; 0.0478

Bench note: what growth did `C[C@H](CS)C(=O)N1CCC[C@H]1C(=O)O` show? 0.21

Any idea what its growth is? The compound is `OC[C@H]1O[C@@H](Oc2ccc(O)cc2)[C@H](O)[C@@H](O)[C@@H]1O` 0.246

Entry Cc1cc(/C=C/c2ccc3cc(N(C)C)ccc3[n+]2C)c(C)n1-c1ccccc1 [Pyrvinium pamoate] has what growth? 0.0798

Need growth of CCN1CC(CCN2CCOCC2)C(c2ccccc2)(c2ccccc2)C1=O (centres undefined) [Doxapram hydrochloride] , thanks. 0.243

Recorded growth of CCc1cc(Cl)c(OC)c(C(=O)NC[C@@H]2CCCN2CC)c1O [S(-)Eticlopride hydrochloride] , please. 0.259

Need growth of `COc1ccc(/C=C/C(=O)Nc2ccccc2C(=O)O)cc1OC` , thanks. 0.178

Which value of growth has been reported for CC(C(=O)O)c1ccc2c(c1)[nH]c1ccc(Cl)cc12 (centres undefined) in the records? 0.215

growth lookup needed for N#CC(c1ccc(Cl)cc1)c1c(Cl)cc(-n2ncc(=O)[nH]c2=O)cc1Cl (centres undefined) , thanks. 0.0496

Reported growth for CCN(CC)CCNC(=O)COc1ccc(OC)cc1 [Mefexamide hydrochloride] : what is it? 0.227

Look up growth: C1CCC(C(CC2CCCCN2)C2CCCCC2)CC1 (centres undefined) [Perhexiline maleate] 0.0474

====

tested on: E. coli TESEC Mtb Alr; assay: growth (OD600 after 10 h); higher = more growth (less inhibition); conditions: arabinose 1000000 nM; compound 0.1 mM; raw OD600 reference: median of DMSO wells 0.193, cell-free background 0.041
Below: a set of entries, each annotated with reported growth.
Write the value as a bare number.

Cc1ccc(-c2ncc(Cl)cc2-c2ccc(S(C)(=O)=O)cc2)cn1; 0.15
Cc1[nH]c(=O)c(C#N)cc1-c1ccncc1; 0.136

Quick check: growth of `Nc1ccc(O)c(C(=O)O)c1` ? 0.21

Requested field: growth. Item: `COc1ccc2cc([C@H](C)C(=O)O)ccc2c1` 0.168

====

tested on: E. coli TESEC Mtb Alr; assay: growth (OD600 after 10 h); higher = more growth (less inhibition); conditions: arabinose 10000 nM; compound 0.1 mM; raw OD600 reference: median of DMSO wells 0.264, cell-free background 0.041
Structures can show the parent of a compound that is named as a salt.
measured.attribute: growth
Form field (numeric): enter value without unit.

Worked cases, answers included:
C[C@@H](O)[C@H]1C(=O)N2C(C(=O)O)=C(SCCNC=N)C[C@H]12 [Imipenem]; 0.269
CO/N=C(\C(=O)N[C@@H]1C(=O)N2C(C(=O)OC(C)OC(C)=O)=C(COC(N)=O)CS[C@H]12)c1ccco1 (stereo partly drawn) [Cefuroxime axetil]; 0.0663
C#C[C@]1(OC(C)=O)CC[C@H]2[C@@H]3CCC4=CC(=NO)CC[C@@H]4[C@H]3CC[C@@]21CC (mixture of isomers) [Norgestimate]; 0.0585

Using the record for c1ccc(CC2=NCCN2)cc1 [Tolazoline hydrochloride] , report its growth. 0.253

Which growth is listed for COC(c1ccccc1)(c1ccccc1)[C@H](Oc1nc(C)cc(C)n1)C(=O)O [Ambrisentan] ? 0.285

Name the reported growth value associated with the compound CCC(=O)OCC(=O)[C@@]1(OC(=O)CC)[C@H](C)C[C@H]2[C@H]3[C@H]([C@@H](O)C[C@@]21C)[C@@]1(C)C=CC(=O)C=C1C[C@H]3Cl [Alclometasone dipropionate] 0.277

Sample Nc1ccn([C@@H]2O[C@H](CO)[C@@H](O)[C@@H]2O)c(=O)n1 [Cytarabine] — what was its growth? 0.247

Record request: growth value, item CCN(CC)CCNC(=O)c1cc(Cl)c(N)cc1OC [Metoclopramide monohydrochloride] 0.252

For the compound shown here, CCCC1O[C@@H]2C[C@H]3[C@@H]4CCC5=CC(=O)C=C[C@]5(C)[C@H]4[C@@H](O)C[C@]3(C)[C@]2(C(=O)CO)O1 (stereo partly drawn) [Budesonide] , give the reported growth. 0.247

Look up growth for this compound: COc1ncnc(NS(=O)(=O)c2ccc(N)cc2)c1OC [Sulfadoxine] 0.251

Item N=C(N)N/N=C/c1c(Cl)cccc1Cl [Guanabenz acetate] has what recorded growth? 0.272

Reported growth, compound CCC1(C)CC(=O)NC1=O (stereo not drawn) [Ethosuximide] : ____ 0.267

Data request, read-out growth, for CC(=O)NCCCS(=O)(=O)O [Acamprosate calcium] 0.242

Query: growth; subject: CN1C(C(=O)Nc2ccccn2)=C(O)c2ccccc2S1(=O)=O [Piroxicam] 0.253

Given the compound COCCCC/C(=N\OCCN)c1ccc(C(F)(F)F)cc1 [Fluvoxamine maleate] , what is its reported growth? 0.26

Please report the recorded growth for O=C(O)c1ccccc1C(=O)Nc1ccc(S(=O)(=O)Nc2nccs2)cc1 [Phthalylsulfathiazole] . 0.266

# lookup: growth of COc1cc(C)c(/C=C/C(C)=C/C=C/C(C)=C/C(=O)O)c(C)c1C [Acitretin] 0.127

What value of growth has been recorded for this entry: CN1C(C(=O)Nc2ccccn2)=C(O)c2sccc2S1(=O)=O [Tenoxicam] 0.223

Query: growth; subject: COc1ccc(C(=O)c2ccccc2)c(O)c1 [Oxybenzone] 0.15

Can you look up the measured growth of CCOC1O[C@H]([C@@H](COCc2ccccc2)OCc2ccccc2)[C@H](OCc2ccccc2)[C@H]1O (stereo partly drawn) [Tribenoside] for me? 0.255

Would you kindly share the measured growth for NC(=O)c1cnccn1 [Pyrazinamide] ? 0.267

Consider the compound shown here: Cc1oncc1C(=O)Nc1ccc(C(F)(F)F)cc1 [Leflunomide] What is its recorded growth? 0.19

Consider the compound Nc1nc2ccc(OC(F)(F)F)cc2s1 [Riluzole hydrochloride] and give its measured growth. 0.255

Which value of growth has been reported for CC(=O)S[C@@H]1CC2=CC(=O)CC[C@]2(C)[C@H]2CC[C@@]3(C)[C@@H](CC[C@@]34CCC(=O)O4)[C@H]12 [Spironolactone] in the records? 0.0753

Given the compound N=C(N)NCc1cccc(I)c1 [Iobenguane sulfate] , what is its reported growth? 0.267

Could you tell me which growth is on file for COc1cc(N)c(Cl)cc1C(=O)NC1CCN(CCCOc2ccc(F)cc2)CC1OC (stereo not drawn) [Cisapride] ? 0.261

Returns the measured growth for the input compound. Input: C[C@]12CC[C@@H]3c4ccc(O)cc4C[C@@H](CCCCCCCCC[S+]([O-])CCCC(F)(F)C(F)(F)F)[C@H]3[C@@H]1CC[C@@H]2O (stereo partly drawn) [Fulvestrant] 0.27

What value of growth has been recorded for this entry: Cc1c(C)c2c(c(C)c1O)CCC(C)(C(=O)O)O2 (stereo not drawn) [Trolox] 0.255
